# Test system: Mycobacterium tuberculosis
# Assay text: Antibacterial activity against Mycobacterium tuberculosis H37Rv by alamar blue assay
# Assay type: functional
Property: MIC
Answer as a quantity: numeral, then unit.

Asked: Item CN(Cc1c2ccccc2cc2ccccc12)C(=O)C1CC(=O)N(C2CCCCC2)C1 (stereo unspecified) : provide MIC
Given back: 125 µM

Asked: Item O=C(Nc1cc(Br)cc(C(F)(F)F)c1)C1CC(=O)N(C2CCCCC2)C1 (stereo unspecified) : provide MIC
Given back: 62.5 µM

Asked: Item CN(Cc1c2ccccc2cc2ccccc12)C(=O)C1CC(=O)N(C2CCCCCCC2)C1 (stereo unspecified) : provide MIC
Given back: 62.5 µM

Asked: Item CN(Cc1c2ccccc2cc2ccccc12)C(=O)C1CC(=O)N(C2CC3CCC2C3)C1 (stereo unspecified) : provide MIC
Given back: 125 µM

Asked: Item O=C(Nc1cccc(OCc2ccccc2)c1)C1CC(=O)N(C2CCCCC2)C1 (stereo unspecified) : provide MIC
Given back: 125 µM

Asked: Item CN(Cc1c2ccccc2cc2ccccc12)C(=O)C1CC(=O)N(C2CCCCCC2)C1 (stereo unspecified) : provide MIC
Given back: 125 µM

---

I'd appreciate it if you could supply pIC50 values for the items below.
# System under test: Enoyl-[acyl-carrier-protein] reductase [NADH] (Mycobacterium tuberculosis, UniProt P9WGR1)
# Sequence (P9WGR1 whole entry): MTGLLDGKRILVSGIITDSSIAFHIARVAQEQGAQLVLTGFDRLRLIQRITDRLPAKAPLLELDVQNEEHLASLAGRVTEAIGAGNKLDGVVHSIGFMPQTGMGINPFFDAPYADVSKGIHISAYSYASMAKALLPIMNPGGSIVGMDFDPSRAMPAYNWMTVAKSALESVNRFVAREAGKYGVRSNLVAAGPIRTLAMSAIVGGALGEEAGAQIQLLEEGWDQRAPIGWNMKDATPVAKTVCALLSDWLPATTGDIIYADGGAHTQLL
Bear in mind: pIC50 is minus log10 of a mol/L concentration; give just that figure.

Asked: Item O=C(Nc1cccc(-c2ccccc2)c1)C1CC(=O)N(C2CCCCC2)C1 (stereo in doubt; p24) : provide pIC50
Given back: 6.41

Asked: Item CN(Cc1c2ccccc2cc2ccccc12)C(=O)C1CC(=O)N(C2CC3CCC2C3)C1 (stereo unspecified) : provide pIC50
Given back: 6.07

Asked: Item O=C(Nc1cccc(-c2ccccc2)c1)C1CC(=O)N(C2CCCCC2)C1 (stereo in doubt; p24a) : provide pIC50
Given back: 5.68

Asked: Item O=C(Nc1cccc(Br)c1)C1CC(=O)N(C2CCCCC2)C1 (stereo unspecified) : provide pIC50
Given back: 6.05

Asked: Item O=C(Nc1cc(-c2ccccc2)c(O)c(-c2ccccc2)c1)C1CC(=O)N(C2CCCCCC2)C1 (stereo unspecified) : provide pIC50
Given back: 6.57

Asked: Item O=C(Nc1cc(Cl)cc(Cl)c1)C1CC(=O)N(C2CCCCC2)C1 (stereo in doubt; d11a) : provide pIC50
Given back: 5.09
